These entries and their values trace back to patent US11814364B2.

- TARGET OR SYSTEM: human plasma kallikrein (Homo sapiens, UniProt P03952)
- Sequence (P03952 391-638 limits assumed): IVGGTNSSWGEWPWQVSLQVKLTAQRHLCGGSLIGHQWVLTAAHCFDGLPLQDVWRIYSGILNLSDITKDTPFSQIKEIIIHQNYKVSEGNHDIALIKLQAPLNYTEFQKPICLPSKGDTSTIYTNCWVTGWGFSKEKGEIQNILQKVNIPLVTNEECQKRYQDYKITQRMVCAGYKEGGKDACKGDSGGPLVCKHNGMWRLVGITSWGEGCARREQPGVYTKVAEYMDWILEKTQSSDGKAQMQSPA
- Sequence (P03952 20-390 partner limits assumed): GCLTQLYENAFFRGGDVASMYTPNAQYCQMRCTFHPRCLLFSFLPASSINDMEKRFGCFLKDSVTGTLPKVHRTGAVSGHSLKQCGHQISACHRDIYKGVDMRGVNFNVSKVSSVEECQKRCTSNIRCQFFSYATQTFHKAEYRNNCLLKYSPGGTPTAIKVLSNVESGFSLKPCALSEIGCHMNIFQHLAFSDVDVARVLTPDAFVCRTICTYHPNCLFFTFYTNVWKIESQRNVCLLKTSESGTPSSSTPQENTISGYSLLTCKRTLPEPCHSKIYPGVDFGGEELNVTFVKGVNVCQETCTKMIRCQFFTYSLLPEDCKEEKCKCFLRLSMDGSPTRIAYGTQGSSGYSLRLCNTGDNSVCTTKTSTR
- ASSAY PROTOCOL: Kallikrein inhibition FLINT assay with quenched AMC peptide substrate Z-Gly-Pro-Arg-AMC (end point EP or kinetic KIN reads)
- Format: biochemical
- CONDITION PARAMETERS: kinetic reads at 5 min intervals over 30 min; read-out: Kallikrein (KIN) IC50
pIC50: −log10 of the molar value.
READOUT NAME: pIC50

See these solved cases before continuing.
pIC50 in this record for COc1cc(C(Cc2ccn(C(F)F)n2)n2cc(-c3ccc(C(N)=O)c(F)c3)cn2)[n+]([O-])cc1-c1cc(Cl)ccc1C(C)=O (single isomer, unassigned) [Example Q77] : 8.01

pIC50 in this record for [O-][n+]1cc(-c2c(-n3cnnn3)ccc(Cl)c2F)ccc1[C@@H](CC1CCC1)n1cc(-c2cn(C(F)F)nn2)cn1 [Example P657] : 6.33

pIC50 in this record for O=C(NC1CC1)c1ccc(-c2cnn(C(Cc3ccc(-c4ccccc4)cc3)c3ccc(-c4cc(Cl)ccc4-n4cnnn4)c[n+]3[O-])c2)cc1 (stereo not drawn) [Example P87] : 7.10

P = [O-][n+]1cc(-c2c(-n3cnnn3)ccc(Cl)c2F)ccc1[C@H](Cn1ccc(OC(F)F)n1)n1cc(-c2ccnc(C(F)(F)F)c2)cn1 [Example P534]
Q = CC1(C(=O)NCC(c2ccc(-c3cc(Cl)ccc3-n3cnnn3)c[n+]2[O-])n2cc(-c3ccnc(F)c3)cn2)CC1 (stereo not drawn) [Example P347]
Returns the identifier with the smallest measured pIC50 among P and Q . Your answer should be the label attached to the chosen record. Q
